These entries and their values trace back to the supplement of paper PMC9170038.

Tested on: K4 kissing-loop RNA reporter
test_description: apparent KD of K4 kissing-loop reporter; higher = weaker reporter binding
experimental_setup: Eterna round: R107; input ligand: arginine 13.2 mM
Decision: apparent KD of K4 kissing-loop reporter compared against 0.1 µM; not below it gives y, below it gives n.

Please review the entries below; each comes with its answer.
1) GCCGUAGAUUGAAGGAGCGCUAGUAGUGAUGUUGCUUGCACUUCUUGUGUAAGAAGAACCUAGCAGGUAGGUCGCAAUCUACGGC :: y
2) UGCACGGGCUCGGCCGCCACUCCCGCGGGUCGAAAGGUCCGCUACUGAGUGAUGUUCGGUUGGAGGAGGACCGGGAGCCCGUGCA [#2 Exclusion - Tryptophan B Attempt #24 (HarryS)] :: n
3) GCCGUACGCAUGGAUACCAGACUACCAUUGGAAACAAUGUGUCCGGUAGUGAUGUUACCUGUCCCUUGGCAGCCAUGCGUACGGC :: y
4) AGGCACGAGCAAGGAUAUUGAGUAGAGUGAUGUUCUGCCUAAGUUGGCUCGAAAGAGCCUUCUUAGCGAGAAGGUGCUCGUGCCU [#2 Same State - FMN A Attempt #26 (HarryS)] :: y
5) CGGCGGAGUGAUGUUCCACCUACUGCGGAUACCAGCUUUGCCAAAGGCCCUUGGCAGCCGCACGGCUCAGUGAUGUUGGGUCGCG [Same State Theophylline A G11] :: y
6) GUACGCUCUCGAGUGAUGUUCGAUAAUCGCGAGGAUAUCGCUUUUGCGAGAAGGCGCGGAAUGAGGAAACUCGUUCUGAGUGUAC [FMN A 24] :: y
7) CAGAACUUGUAUACAGGGCAUGCCAGAGAUACCAGUCAAAUGGAAGGCCCUUGGCAGCUCAGGCGAGUGAUGUUCGCAGGCUGAC [Exclusion Theophylline A GF 19] :: y
8) UGACUGGACUGAAGGAGCGCUUAACUCCUAGUGAUGUUAGGAUAACGAGACAAAGUCUCGAAGCAGGUAGGUCGCAGUCUAGUCU :: y

Exam item: Is reported apparent KD of K4 kissing-loop reporter greater than or equal to 0.1 µM here: AAGGGCUAGGCGGCCGCCACUGGUCGUGUACACAUACAGACCAGUGAUGUUGGUAUUGUAUGCGACAGGACCGGGCCUAGCCCAA [Exclusion - Tryptophan B (Freestyle 29)]
Marked response: y

Exam item: Is reported apparent KD of K4 kissing-loop reporter greater than or equal to 0.1 µM here: GGUUUAUAGGAGGAUACCAGUACGAAUAAAGUACAUUAAUAGUAGAGUGAUGUUCUAAAGUACCCUUGGCAGCUUAGAUUAAGUU [ExTheophylB.H]
Marked response: y

Exam item: Is reported apparent KD of K4 kissing-loop reporter greater than or equal to 0.1 µM here: UGAUUUAACUGAAGGAGCGGCAAGAGAGAAGGAAAUAUAGUGAUGUUAUAUAAGAGAGAGAGCCAGGUAGGUCGCAGAGGGAGGA [ExArgB.E]
Marked response: y

Exam item: Is reported apparent KD of K4 kissing-loop reporter greater than or equal to 0.1 µM here: ACAGAUUGAUUGAUUCACUUUGUAGCUGCGAAGGAUAUUAAGACGCUAAGAAGGUCGCUUAAGGGUAGUGAUGUUACCUUUUGAG [theeternabot_sameState_KL_FMN_A_27]
Marked response: n

Exam item: Is reported apparent KD of K4 kissing-loop reporter greater than or equal to 0.1 µM here: UGUAUGGACUGAAGGAGCGGUAGAUAAACUGAGUGAUGUUCGGCAAAUAAAGGCGCAAGCCACCAGGUAGGUCGCAGUCCAUACU [KL-SSArg B1]
Marked response: y

----------
Entries annotated with measured apparent KD of K4 kissing-loop reporter
Test system: K4 kissing-loop RNA reporter;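 further: bound reporter read as fluorescence of individual clusters on recovered sequencing chips by microscopy, with normalized cluster intensities fitted with a binding model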
test_description: apparent KD of K4 kissing-loop reporter; higher = weaker reporter binding
experimental_setup: Eterna round: R107; input ligand: FMN 200 uM

See these solved cases before continuing.
1) CGUUCUUCUGUCGAUACCAGCUUCAGUUGGCGGCCAGUGAUGUUGGUAUCGCCGAUGCCAAGCCCUUGGCAGCGACAUGAGACCC [Onrire] :: 171 nM
2) AGUAGAGCAUCAGAUACCAGACUGAACUGAUGGUAAGGAGUGAUGUUCCUUAAUCAGCUAGUCCCUUGGCAGCUGAUAAUAGUCA [Theo B SS t3] :: 251 nM

From here, focus on the item given below.
Entry UCGUCUGUGUGAGGAUAUCCAAGCGAGCUGCGUACAGGUGCGGCGUUUGGAGUGAUGUUCCAGGCAGGAGAAGGCGCACGGGCUU [Esored] , apparent KD of K4 kissing-loop reporter reported as 191 nM

----------
Test system: MS2 coat protein
test_description: apparent KD of MS2 coat protein, switch OFF state (with FMN for OFF switches, without FMN for ON switches); designed switch direction (-1 OFF switch, 1 ON switch): -1; higher = weaker reporter binding
experimental_setup: FMN input: 0 or 200 uM; Eterna round: R93 (includes R88 designs)
quantity_measured: apparent KD of MS2 coat protein
Put down the number, then write its unit next to it.

1. AAAAAACAUGAGGAUCACCCAUGUAAGGAUAUCUAAAAUAAAAGAAAAAUAAAGAAAAGGAGAAGGUACAAGGA [JL wbt mod 25] :: 32.6 nM
2. AACAGUACAGGAUAUACAUGAGGAUCACCCAUGUGAAAGAAAAGUGGCGUACCACAAAGUAGAAGGGUACUGGA [Mat - Exclusion 3 - JL mod - D23] :: 122 nM
3. AAGUUAUUAGGAUAUACUUGUGCGAUUAAUACGCUGAUAGUACAUGAGGAUCACCCAUGUAGAAGGAAUAAAAA [JR_Exc002_Sub410] :: 21.2 nM
4. AAAAAACAUGAGGAUCACCCAUGUUAGGAUAUUCCUAAAAAAAAAAAAAAAAAAAAUGGAAGAAGGGACAAAAA [excalibur 9] :: 20.6 nM
5. GAUAGUGAAGGAUAUACUGGAGGAGUGCGAUAGAAGAAAGAACAUGAGGAUCACCCAUGUAGAAGGUCAGAAGU [JR_Exc002_Sub1225] :: 27.2 nM
6. AGGAAACAUGAGGAUCACCCAUGUCAGGAUAUACAAAAGAAAAGAAAAGAAAGAAGAAGUAGAAGGGACACGAA [Double Falcon] :: 22.5 nM
7. AAAAAGGUAGGAUAUACAUGAGGAUCACCCAUGUCGCGGCGCGCGGACAGCCCGCCCUGUAGAAGGACCAAAAA [Default title] :: 28.6 nM
8. AAUAAACAUGAGGAUCACCCAUGUCAGGAUAUGCACAAACAAACAAACAAACAAGCAAGCAGAAGGGACACUAC [Amethyst 88] :: 28.6 nM
9. AAGUUAUUAGGAUAUACUAGUGCAAUUAAUACGCUGAUAGUACAUGAGGAUCACCCAUGUAGAAGGAAUAAAAA [Mat - Exclusion 2 - JL mod - D66] :: 20.6 nM
10. CUUAGACAUGAGGAUCACCCAUGUGAGGAUAUGAUGCGAAUAAAGAAAGAAGAAAGCAUCAGAAGGCACAUAUG :: 545 nM

Entry AGAAAGUCAGGAUAUACGAAUAAGAAUAAAGACGAGAUCGGACAUGAGGAUCACCCAUGUAGAAGGGACAAGAA [Diamond 17] , apparent KD of MS2 coat protein reported as 74.7 nM

Entry AAGAAGUCAGGAUAUGCCAGAGAUCACGAAAGUGACGAGUAGCAGAAGGGACAUGAGGAUCACCCAUGUAAAGA [Opal 7] , apparent KD of MS2 coat protein reported as 45 nM

Entry AAGAUCAGAGGAUAUACAUAAGGUGAUGGAAACAUCGCCAAACAUGAGGAUCACCCAUGUAGAAGGCUGAUCAA [Mat - Exclusion 2 - JL mod - D61] , apparent KD of MS2 coat protein reported as 43.7 nM

Entry ACCAGACAUGAGGAUCACCCAUGUCAGGAUAUAGUAUGAAAAAAAAAAAAAAAAAAUACUAGAAGGGACAAGGG [Design 14: Super Stable Short Helix 5] , apparent KD of MS2 coat protein reported as 63.8 nM

Entry AACAGGACAGGAUAUACAUGAGGAUCACCCAUGUGAGAAUUAAGUAGAUUACCACAGAGUAGAAGGGUCCUGGA [Ruby 96] , apparent KD of MS2 coat protein reported as 99.5 nM

Entry AGCUAGUGAGGAUAUACAAGAAUAUAAACGAACAUAAAGGGACAUGAGGAUCACCCAUGUAGAAGGCACUAGCA [Diamond 73] , apparent KD of MS2 coat protein reported as 152 nM

Entry AUCUAGUCAGGAUAUGACUACAUAAAAAAUAAAAAAUGUAGUCAGAAGGGACAUGAGGAUCACCCAUGUACUAA [Mat - Exclusion 4 - Eli mod - D95] , apparent KD of MS2 coat protein reported as 29.3 nM

Entry AGCUAGUCAGGAUAUACGAACAAGAAAAAAGACGAGAACGGACAUGAGGAUCACCCAUGUAGAAGGGACUAGCA [Diamond 9] , apparent KD of MS2 coat protein reported as 26.3 nM

Entry AACAGUACAGGAUAUACAUGAGGAUCACCCAUGUAAAAAUAAAAAGGGAACUCAAAAAGUAGAAGGGUACUGGA [Moding Maslow revisited (73) 14] , apparent KD of MS2 coat protein reported as 32.5 nM

Entry ACGUUGAGAGGAUAUACGAACAUGUCAAAAGACGUGAAGGGACAUGAGGAUCACCCAUGUAGAAGGCUCAACGA [Mat - Exclusion 2 - JL mod - D9] , apparent KD of MS2 coat protein reported as 186 nM

Entry AACAAGUCAGGAUAUGCGAAAAGAAAAUAAGAUACACAAAAGCAGAAGGGACAUGAGGAUCACCCAUGUAAAUA [JR_Exc004_Sub011] , apparent KD of MS2 coat protein reported as 33.1 nM

Entry AAGAAACAUGAGGAUCACCCAUGUCAGGAUAUUGAAAAGAAAAGAAAAGAAAGAAGAACAAGAAGGGACAAAGG [Neferkare (III) Neby] , apparent KD of MS2 coat protein reported as 40.3 nM

Entry CUCUAGUGAGGAUAUGGAAGAAAAGAAGAGAAAGAAAAGAACCAGAAGGCACAUGAGGAUCACCCAUGUAAGAA [EteRNA is fun!] , apparent KD of MS2 coat protein reported as 46.3 nM

Entry AAAGAUGGAGGAUAUACAUGAGGAUCACCCAUGUGGAAUCUAAAAUGGGAAAAAGAAAGUAGAAGGCCAUAAAA [Ex 3 May 40] , apparent KD of MS2 coat protein reported as 83.1 nM

Entry GAACACGGAGGAUAUACAUGAGGAUCACCCAUGUUGAUCCUCAUUAAAAUUGAUAAAUGUAGAAGGCCGUGAUA [Exclusion 3.11 (a Vinnie Mod, FMN+ favored more)] , apparent KD of MS2 coat protein reported as 21.2 nM
